meta.source: PubChem BioAssay (NCI)

test.name: NCI Yeast Anticancer Drug Screen. Data for the mlh1 rad18 strain (AID 175)
measurement.conditions: S. cerevisiae mlh1 rad18 strain growth inhibition; at 50.0 µM; hits give high values
About 79,000 compounds went through this panel and 15% of them were active in at least one assay; those are over-represented in the sample as a whole.
measurement.kind: growth inhibition (%)
Answer with a number only, understood to be in %.

INPUT: Read the entry BrC1CCC(Br)C(Br)CCC1Br (stereo unspecified) and write its reported growth inhibition.
OUTPUT: 70.4

INPUT: Read the entry CCCc1c[nH]c(-c2ccc(-c3cc(CCC)c(C=O)[nH]3)s2)c1 and write its reported growth inhibition.
OUTPUT: -56.7

INPUT: Read the entry COc1ccc(/C(=N/NS(=O)(=O)c2ccc([N+](=O)[O-])cc2)C2COC(=O)C2)cc1OC (stereo unspecified) and write its reported growth inhibition.
OUTPUT: 2.25

INPUT: Read the entry CN(C)c1nc(=S)c2cn[nH]c2[nH]1 and write its reported growth inhibition.
OUTPUT: -1.2

INPUT: Read the entry CCCCCCCCCCCCC#N and write its reported growth inhibition.
OUTPUT: 7.85

INPUT: Read the entry COc1ccc2[nH]c(-c3cccc(N(C)C)c3)cc(=O)c2c1 and write its reported growth inhibition.
OUTPUT: -70.6

====

test.name: NCI Yeast Anticancer Drug Screen. Data for the mec2-1 strain (AID 157)
measurement.conditions: S. cerevisiae mec2-1 strain, at 50.0 µM
Compounds without any hit were thinned out: in the full panel of roughly 79,000, 15% have a hit. The source made the active and inactive calls. Cut-off read from the data, not from the text of the source: active = growth inhibition above about 70%; inactive = the rest.
Just give me one of these, please: active, inactive

INPUT: Recorded test call requested for CCOC(=O)c1c2c(c(-c3ccccc3)n1C)C(=O)C(C)=C(C)C2=O
OUTPUT: inactive

INPUT: Recorded test call requested for O=C(COc1ccc(Cl)cc1)OCCCl
OUTPUT: inactive

INPUT: Recorded test call requested for NS(=O)(=O)/C=C(\Cl)c1ccccc1
OUTPUT: inactive

INPUT: Recorded test call requested for O=S(=O)(O)CCCCCO
OUTPUT: inactive

INPUT: Recorded test call requested for O=Cc1cccc(OC(=O)Nc2ccccc2)c1
OUTPUT: inactive

INPUT: Recorded test call requested for N#CC(C#N)SCc1ccccc1
OUTPUT: inactive

INPUT: Recorded test call requested for N#CCCC1(CCC#N)CCCCCCC(CCC#N)(CCC#N)C(O)C1O (centres undefined)
OUTPUT: inactive

INPUT: Recorded test call requested for CN1CCC(CC(O)(c2ccccc2)C2CCCCC2)C1 (centres undefined)
OUTPUT: inactive

INPUT: Recorded test call requested for NCCCCCS(=O)(=O)O
OUTPUT: inactive

INPUT: Recorded test call requested for CCCCC1(O)CC2CC1C(C)C2(C)C (centres undefined)
OUTPUT: inactive

INPUT: Recorded test call requested for CS/C(=N/N=C/c1ccc2ccccc2n1)SS/C(=N/N=C\c1ccc2ccccc2n1)SC
OUTPUT: inactive

INPUT: Recorded test call requested for CSC1=NC=C(C#N)C2=NC(c3ccccc3)NN12 (centres undefined)
OUTPUT: inactive

INPUT: Recorded test call requested for CC(C)(C)c1ccc(-c2cc3nc(-c4ccccc4)cc(=O)n3[nH]2)cc1
OUTPUT: inactive

INPUT: Recorded test call requested for CC1=CC2C3C(=O)NC(=O)C3C1C1C3C(=O)NC(=O)C3C21 (centres undefined)
OUTPUT: inactive

INPUT: Recorded test call requested for CC(C)C(=O)Nc1cccc([N+](=O)[O-])c1
OUTPUT: inactive

INPUT: Recorded test call requested for Nc1ccc(CCCCc2ccc(Cl)cc2Cl)cc1
OUTPUT: active

INPUT: Recorded test call requested for CCCC(C(C)=O)C(C)=O
OUTPUT: inactive

INPUT: Recorded test call requested for Nc1c(N=Nc2ccc(-c3ccc(N=Nc4ccc(O)c(C(=O)O)c4)cc3)cc2)cc(S(=O)(=O)O)c2ccccc12
OUTPUT: active

INPUT: Recorded test call requested for C=COC(=O)N1CCCCC1
OUTPUT: inactive

INPUT: Recorded test call requested for CCCCCCCCCCCCCCCCCC(=O)OCC(COC1OC(CS(=O)(=O)O)C(O)C(O)C1O)OC(=O)CCCCCCCCCCCCCCCCC (centres undefined)
OUTPUT: inactive

INPUT: Recorded test call requested for CSCCC(C(=O)O)N(CC1(O)OCC(O)C(O)C1O)N=O (centres undefined)
OUTPUT: inactive

INPUT: Recorded test call requested for CN(Cc1nc2c(N)nc(N)nc2nc1N)c1ccc(C(=O)NC(CCC(=O)O)C(=O)O)cc1 (centres undefined)
OUTPUT: inactive

INPUT: Recorded test call requested for O=C(NC1CCCCC1)Oc1ccc(-c2ccccc2)cc1Cl
OUTPUT: active

INPUT: Recorded test call requested for CN(C)C(=S)/N=c1\ss/c(=N\C(=S)N(C)C)n1-c1ccc2c(c1)OCO2
OUTPUT: inactive

INPUT: Recorded test call requested for CN(C)CCOc1cccc(OCCN(C)C)n1
OUTPUT: inactive

INPUT: Recorded test call requested for C[N+](C)(Cn1nc(Cl)c2ccc([N+](=O)[O-])cc21)Cn1nc(Cl)c2ccc([N+](=O)[O-])cc21
OUTPUT: inactive

INPUT: Recorded test call requested for Cc1cccc(C)c1Nc1cc(=O)[nH]c(=O)[nH]1
OUTPUT: inactive

INPUT: Recorded test call requested for COc1ccc(CC2=c3cc(OC)c(OC)cc3=CCN2)cc1OC
OUTPUT: inactive

INPUT: Recorded test call requested for CC(O)CN1CCOCC1 (centres undefined)
OUTPUT: inactive

INPUT: Recorded test call requested for CCCC1(C)COC(/C=C/c2ccccc2)OC1 (centres undefined)
OUTPUT: inactive

INPUT: Recorded test call requested for CCC(CO)NC(=O)c1cccnc1 (centres undefined)
OUTPUT: inactive

INPUT: Recorded test call requested for O=C(O)CCSc1ccc([N+](=O)[O-])cc1
OUTPUT: inactive

INPUT: Recorded test call requested for BrC1CCC(Br)C(Br)CCC1Br (centres undefined)
OUTPUT: inactive

INPUT: Recorded test call requested for CC(=O)OCCn1c(Cc2ccc(Cl)cc2)nn(C(C)=O)c1=O
OUTPUT: inactive

INPUT: Recorded test call requested for O=C(Nc1ccccc1-c1ccccc1)c1cccnc1
OUTPUT: inactive

INPUT: Recorded test call requested for CC(=O)NOCC1NC(=O)C(CONC(C)=O)NC1=O (centres undefined)
OUTPUT: inactive

INPUT: Recorded test call requested for CN1CCC(C(O)c2ccccc2)CC1 (centres undefined)
OUTPUT: inactive

INPUT: Recorded test call requested for CCOC(=O)C(CCC(C)(C)SCc1ccccc1)(NC(C)=O)C(=O)OCC
OUTPUT: inactive

INPUT: Recorded test call requested for COc1ccc2c(c1)Cc1cc(N=[N+]([O-])c3ccc4c(c3)Cc3cc(OC)ccc3-4)ccc1-2
OUTPUT: inactive

INPUT: Recorded test call requested for O=C(O)CCCCCC1=CCCCC1
OUTPUT: inactive

INPUT: Recorded test call requested for C=C(C)COCc1ccc(C(C)(C)CC(C)(C)C)cc1
OUTPUT: inactive

INPUT: Recorded test call requested for CN(C)c1c([O-])c(=[N+](C)C)c1=O
OUTPUT: inactive

INPUT: Recorded test call requested for Cc1cn(C2CC(NO)C(CO[Si](C)(C)C(C)(C)C)O2)c(=O)[nH]c1=O (centres undefined)
OUTPUT: inactive

INPUT: Recorded test call requested for CC(=O)Nc1c([N+](=O)[O-])cc(O)cc1[N+](=O)[O-]
OUTPUT: inactive

INPUT: Recorded test call requested for COc1ccc(NC(=O)CCC2=CC(=O)CC(c3ccccc3)O2)cc1 (centres undefined)
OUTPUT: inactive

INPUT: Recorded test call requested for CCN(CC)CC1c2ccccc2C(CNc2ccccc2)N1C (centres undefined)
OUTPUT: inactive

INPUT: Recorded test call requested for O=S(=O)(c1ccccc1)c1cccc2c[n+]3ccccc3cc12
OUTPUT: inactive

INPUT: Recorded test call requested for CCOC(=O)C(Cl)Cc1ccccc1 (centres undefined)
OUTPUT: inactive

INPUT: Recorded test call requested for CCO/C=N\c1c(C#N)c(CC#N)nn1C
OUTPUT: inactive
